tested on: KM20L2 colon; assay: NCI tumour cell line growth inhibition, 48 h
Consider the following compounds; for each one, report its TGI.

COC(=O)C(C(=O)C(=O)Nc1c(C)cccc1C)c1cnc2ccccc2n1 (stereo unspecified)
> 100 µM
C/C(=C1/N=C(c2cc([N+](=O)[O-])ccc2Cl)N(c2cccc(C)c2)C1=O)c1cc2ccccc2oc1=O
> 100 µM
CC(=O)OCC1OC(n2cc(F)c(=O)[nH]c2=O)C(NC(=O)N(CCCl)N=O)C(OC(C)=O)C1OC(C)=O (stereo unspecified)
> 100 µM
N.N.N.N.N.[Co+3].[I-].[N-]=[N+]=[N-]
> 100 µM
COc1ccc(C/C(=N/O)C(=O)NCCc2cc(Br)c(OCCCN(C)C)c(Br)c2)cc1Br
40.6 µM

Provide TGI values for the following items, in order.
1. Cc1ccc(S(=O)(=O)OCCn2cnc3nc(NC(=O)c4ccccc4)[nH]c(=O)c32)cc1
2. COP(=O)(OC)C(=O)N1N(c2ccc([N+](=O)[O-])cc2)C(=O)C(C)NC1(NNc1ccc([N+](=O)[O-])cc1)P(=O)(OC)OC (stereo unspecified)
3. O=C(/C=C/c1cc(Cl)cc(Cl)c1O)c1cccc(O)c1
4. COc1ccc(C2=C(Cl)c3cc(OC)c(OC)cc3C2OC)cc1OC (stereo unspecified)
5. COC(=O)CC(NC(=O)OCc1ccccc1)C(C(C)=O)C(=O)OCc1ccccc1 (stereo unspecified)
6. COc1ccc(C(=O)C2=NON3OC23C(=O)c2ccc(OC)cc2)cc1 (stereo unspecified)

A:
> 100 µM
> 100 µM
> 100 µM
> 100 µM
> 31.6 µM
35.5 µM

###

Consider the following compounds; for each one, report its TGI.
system: T-47D breast; assay: NCI tumour cell line growth inhibition, 48 h

Check out these entries, answers already filled in.
O=C(O)c1ccc(C(=O)c2ccccc2C(=O)O)cc1C(=O)O
> 100 µM
COc1ccc(C2CC(c3cccc(Nc4ccnc5cc(Cl)ccc45)c3)=NN2C=O)cc1 (stereo not given)
> 42.8 µM
CC(=O)C(=[N+]=[N-])C(=O)N1CCOC1=O
> 10 µM

// each listed compound needs a value for TGI
1. CC(C)C1C(=O)N(c2c(F)c(F)c(F)c(F)c2F)C(=S)N1CCS(=O)c1ccccc1 (stereo not given)
2. CCN(CC)c1ccc(/C=N/NC(=O)CSc2nc3ccccc3c(=O)n2CCc2ccc(S(N)(=O)=O)cc2)c(O)c1

A:
1: 32.5 µM; 2: > 100 µM

###

Provide the reported TGI of each item.
test system: A498 renal; assay: NCI tumour cell line growth inhibition, 48 h

S=c1[nH]nc(CNc2ccc(-c3n[nH]c(=S)n3-c3ccc(Cl)cc3)cc2)n1-c1ccc(Cl)cc1
> 100 µM
CC(=O)Nc1c(S(=O)(=O)c2ccccc2)c(C)c(C)n1CCN(C)C
> 100 µM

I'm hoping you can list TGI for every molecule here, please.
1. NS(=O)(=O)c1ccc(Nc2cc(-c3cccc(O)c3)[nH]n2)cc1
2. CCN(Cc1ccc(C)cc1)c1ccc(CO)c(Cl)c1
3. Oc1ccc(O)c(CNc2ccc(C(O)C(F)(F)F)cc2)c1 (stereo not given)

A:
["> 25 µM", "0.178 µM", "> 100 µM"]

###

Exercise: for every item that follows, state its recorded TGI.
system: SNB-75 CNS; test: NCI tumour cell line growth inhibition, 48 h
One number for each entry, in µM.

CC(=O)O[C@H]1C(=O)[C@@]2(C)C(C(OC(=O)c3ccccc3)[C@]3(O)C[C@H](OC(=O)C(OC(=O)CCCC(=O)NCCCN(C)C)C(NC(=O)c4ccccc4)c4ccccc4)C(C)=C1C3(C)C)C1(OC(C)=O)COC1C[C@@H]2O (some centres undefined)
0.021

Q: Fill blank: measured TGI of the compound Cc1cc(C)n(CC(Cn2nc(C)cc2C)=C(/C(Cl)=C(/Cl)Nc2ccc([N+](=O)[O-])cc2)[N+](=O)[O-])n1 is ____.
A: 14.3
